Test system: NCI-H460
assay-text: Cytotoxicity against human NCI-H460 cells after 72 hrs by sulforhodamine B assay
Type: functional, cell-based
condition-set: NCI-H460, 72 h
pIC50: −log10 of the molar value.
metric: pIC50

>  <compound>
CC[C@@]1(O)C(=O)OCc2c1cc1n(c2=O)Cc2cc3ccccc3nc2-1

>  <pIC50>
8.30

$$$$
>  <compound>
O=C1c2c(c3c4ccc(O)cc4n([C@@H]4O[C@H](CO)[C@@H](O)[C@H](O)[C@H]4O)c3c3[nH]c4cc(O)ccc4c23)C(=O)N1NCC1COCO1 (some centres not stated)

>  <pIC50>
< 6.00

$$$$
>  <compound>
O=C1c2c(c3c4ccc(O)cc4n([C@@H]4O[C@H](CO)[C@@H](O)[C@H](O)[C@H]4O)c3c3[nH]c4cc(O)ccc4c23)C(=O)N1NC1COCOC1

>  <pIC50>
< 6.60

$$$$
>  <compound>
COCC(COC)NN1C(=O)c2c(c3c4ccc(O)cc4n([C@@H]4O[C@H](CO)[C@@H](O)[C@H](O)[C@H]4O)c3c3[nH]c4cc(O)ccc4c23)C1=O

>  <pIC50>
< 6.90

$$$$
>  <compound>
O=C1c2c(c3c4ccc(O)cc4n([C@@H]4O[C@H](CO)[C@@H](O)[C@H](O)[C@H]4O)c3c3[nH]c4cc(O)ccc4c23)C(=O)N1NC(CO)CO

>  <pIC50>
6.71

$$$$
>  <compound>
O=C1c2c(c3c4ccc(O)cc4n([C@@H]4O[C@H](CO)[C@@H](O)[C@H](O)[C@H]4O)c3c3[nH]c4cc(O)ccc4c23)C(=O)N1N1CCOCC1

>  <pIC50>
< 6.00

$$$$

Here is another compound to look at.
-- ask Which pIC50 is listed for O=C1c2c(c3c4ccc(O)cc4n([C@@H]4O[C@H](CO)[C@@H](O)[C@H](O)[C@H]4O)c3c3[nH]c4cc(O)ccc4c23)C(=O)N1NC1C(O)CCCC1O (some centres not stated) ?
-- reply < 6.60
